Where do the numbers come from? From patent US10995101B2.

protocol: in vitro
stated.conditions: human, Caco-2, pH 7.4
Could you mark each record satisfied if its efflux ratio at 120 min, 2 μM falls strictly under 30, and not satisfied if it equals or exceeds it?

Answered cases to consult:
{"compound": "Nc1nc2c(sc(=O)n2CCN2CCN(c3cc(O[C@H]4CC[S@+]([O-])CC4)c(F)cc3F)CC2)c2nc(-c3ccco3)nn12 [Compound 112]", "class.assignment": "not satisfied"}
{"compound": "Nc1nc2c(sc(=O)n2CCN2CCN(c3ccc(O[C@@H]4COC[C@H]4O)cc3F)CC2)c2nc(-c3ccco3)nn12 [Compound 83]", "class.assignment": "satisfied"}
{"compound": "Nc1nc2c(sc(=O)n2CCN2CCN(c3ccc(OCc4n[nH]c(=O)o4)cc3F)CC2)c2nc(-c3ccco3)nn12 [Compound 2]", "class.assignment": "satisfied"}
{"compound": "CC(C)(Oc1ccc(N2CCN(CCn3c(=O)sc4c3nc(N)n3nc(-c5ccco5)nc43)CC2)c(F)c1)C(=O)O [Compound 39]", "class.assignment": "not satisfied"}
{"compound": "Nc1nc2c(sc(=O)n2CCN2CCN(c3ccc(OCC(=O)O)cc3)CC2)c2nc(-c3ccco3)nn12 [Compound 10]", "class.assignment": "satisfied"}

Consider the record given below.
Q) Does this compound meet the criterion efflux ratio at 120 min, 2 μM < 30? Nc1nc2c(sc(=O)n2CCN2CCN(c3ccc(OC4CCNCC4)cc3F)CC2)c2nc(-c3ccco3)nn12 [Compound 47]
A) not satisfied
